B1: C22orf15 (parent)
chain: PRGRAHLLPNPYQQDFLGLPEELR

Variants of: B1
Protocol notes: protein stability index of a GFP-peptide fusion (GPS, HEK-293T) (PSI 1-6); higher = more stable;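 further: lentivirally expressed fusions sorted by FACS into six bins by GFP to DsRed ratio, PSI derived from sequencing read proportions per bin multiplied by bin number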
Settings: c terminus: a fixed tail appended
I'd be grateful if you could share measured protein stability index for these entries.
The answer should be a number; do not append a unit.

Per the record, PRGRAHLLPNPYQQDFLGSPEELR [L19S] has protein stability index of 4

// PRGRAHDLPNPYQQDFLGLPEELR [L7D] : protein stability index value = 3.96

protein stability index reading for ERGRAHLLPNPYQQDFLGLPEELR [P1E] : 3.96

Short answer for PRGRAHLLPNPYQQDFRGLPEELR [L17R] : protein stability index was 4.03

// sample PRGRAHLLPNPYQQDCLGLPEELR [F16C] , its protein stability index was 4.11

Notebook: PRGRTHLLPNPYQQDFLGLPEELR [A5T] , protein stability index read as 4.05
